Reference source: patent US6781000B1

IC50 for the inhibition of the chymotrypsin-like activity of 20S proteasome listing for selected molecules.
- TEST SYSTEM: chymotrypsin-like activity of 20S proteasome (Bos taurus, UniProt Q2TBX6+Q32KL2)
- Construct: was purified to homogeneity from bovine brain according to published methods; from tissue; host or cells: bovine brain
- EXPERIMENTAL DETAILS: 20S proteasome chymotryptic activity inhibition assay (Suc-Leu-Leu-Val-Tyr-AMC cleavage)
- Type: biochemical
- CONDITION SUMMARY: 2 μg 20S proteasome from bovine brain, 50 μM fluorogenic substrate, 15 minutes at 37° C., pH7.5
- Protocol: Compounds of this invention prepared according to the method of Example 1 were tested as follows. […] The chymotryptic activity of the complex is measured by the increase in fluorescence following cleavage of the substrate peptide succinyl-leucine-leucine-valine-tyrosine-7-amino-4methyl coumarin. […] The rate of proteolysis is directly proportional to the amount of liberated aminomethylcoumarin which is measured by fluorescent spectroscopy (EX 370 nm, EM 430 nm).
REPORTED PROPERTY: IC50 for the inhibition of the chymotrypsin-like activity of 20S proteasome

molecule="CC(C)CC(NC(=O)C(Cc1ccc2ccccc2c1)NC(=O)C(=O)Cc1c[nH]c2ccccc12)C(=O)NC(CCCNC(=N)N)C(=O)O (stereo not drawn)" result=">10 µg/mL"
molecule="CC(C)CC(NC(=O)C(Cc1ccc2ccccc2c1)NC(=O)C(=O)Cc1c[nH]c2ccccc12)C(=O)NCC(=O)O (stereo not drawn) [Compound 65]" result=">10 µg/mL"
molecule="CC(C)CC(NC(=O)C(Cc1ccc2ccccc2c1)NC(=O)C(=O)Cc1c[nH]c2ccccc12)C(=O)NC(Cc1c[nH]cn1)C(=O)O (stereo not drawn)" result=">10 µg/mL"
molecule="CC(C)CC(NC(=O)C(Cc1ccc(-c2ccccc2)cc1)NC(=O)C(=O)Cc1c[nH]c2ccccc12)C(=O)NC(CCC(=O)O)C(=O)O (stereo not drawn)" result=">10 µg/mL"
molecule="CC(C)CC(NC(=O)C(C)NC(=O)C(=O)Cc1c[nH]c2ccccc12)C(=O)NC(C(=O)O)C(C)C (stereo not drawn)" result=">10 µg/mL"
molecule="CC(C)CC(NC(=O)C(Cc1ccc(-c2ccccc2)cc1)NC(=O)C(=O)Cc1c[nH]c2ccccc12)C(=O)NC(Cc1ccccc1)C(=O)O (stereo not drawn)" result=">10 µg/mL"
